Assign pIC50 to each entry below.
# target.of.assay: KRAS G12V (Homo sapiens, UniProt P01116, G12V)
# Sequence (P01116 1-188 isoform P01116-2 G12V): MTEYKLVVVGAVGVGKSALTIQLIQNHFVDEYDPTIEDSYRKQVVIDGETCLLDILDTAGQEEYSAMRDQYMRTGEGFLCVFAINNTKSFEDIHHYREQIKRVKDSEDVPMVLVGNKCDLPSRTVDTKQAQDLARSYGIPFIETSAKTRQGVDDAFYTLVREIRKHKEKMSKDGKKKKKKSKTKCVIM
# test.protocol: KRAS G12V GDP-GTP exchange assay (bodipy-GDP for GppNHp, with SOS1)
# study.conditions: 2.5 nM bodipy loaded KRAS G12V, 3 hours after GppNHp-SOS1; read-out: G12V_exchange (KRAS_G12V exchange assay IC50)
pIC50: −log10 of the molar value.

Given CN1CCC[C@H]1COc1nc2c(F)c(-c3cc(O)cc4ccccc34)c(CCC#N)cc2c2c1cc(-c1ccn(C)n1)n2C1C2CNC1C2 (stereo partly drawn) , state its recorded pIC50. ≥ 7.00

// repeat for Cc1ncc(-c2cn(C3C4CNC3C4)c3c2c(OC[C@@H]2CCCN2C)nc2c(F)c(-c4cc(O)cc5ccccc45)c(CCC#N)cc23)s1 (stereo partly drawn) and report 6.00 to 7.00

// repeat for CN1CCC[C@H]1COc1nc2c(F)c(-c3cc(O)cc4ccccc34)c(CCC#N)cc2c2c1cc(Cc1ccccc1)n2C1C2CNC1C2 (stereo partly drawn) and report 5.30 to 6.00

// repeat for CN1CCC[C@H]1COc1nc2c(F)c(-c3cc(O)cc4ccccc34)c(CCC#N)cc2c2c1c(-c1cnn(C)c1)cn2C1C2CNC1C2 (stereo partly drawn) and report 6.00 to 7.00

// repeat for CN1CCC[C@H]1COc1nc2c(F)c(-c3cc(O)cc4ccccc34)c(CCC#N)cc2c2c1c(CO)cn2C1C2CNC1C2 (stereo partly drawn) and report 6.00 to 7.00

// repeat for CCCc1cc2c(OC[C@@H]3CCCN3C)nc3c(F)c(-c4cc(O)cc5ccccc45)c(CCC#N)cc3c2n1C1C2CNC1C2 (stereo partly drawn) and report ≥ 7.00

---

Assign IC50 to each entry below.
# target.of.assay: KRAS G12V (Homo sapiens, UniProt P01116, G12V)
# test.protocol: KRAS G12V GDP-GTP exchange assay (bodipy-GDP for GppNHp, with SOS1)
# study.conditions: 2.5 nM bodipy loaded KRAS G12V, 3 hours after GppNHp-SOS1; read-out: G12V_exchange (KRAS_G12V exchange assay IC50)

Given CN(C)C(=O)CCc1cc2c(OC[C@@H]3CCCN3C)nc3c(F)c(-c4cc(O)cc5ccccc45)c(CCC#N)cc3c2n1C1C2CNC1C2 (stereo partly drawn) , state its recorded IC50. ≤ 100 nM

// repeat for CN1CCC[C@H]1COc1nc2c(F)c(-c3cccc4ccc(F)cc34)c(CCC#N)cc2c2c1cc(CCC(=O)N1CCC1)n2C1C2CNC1C2 (stereo partly drawn) and report ≤ 100 nM

// repeat for Cc1ncc(-c2cn(C3C4CNC3C4)c3c2c(OC[C@@H]2CCCN2C)nc2c(F)c(-c4cc(O)cc5ccccc45)c(CCC#N)cc23)o1 (stereo partly drawn) and report 100 to 1000 nM

// repeat for CN1CCC[C@H]1COc1nc2c(F)c(-c3cc(O)cc4ccccc34)c(CCC#N)cc2c2c1c(C(=O)NCCO)cn2C1C2CNC1C2 (stereo partly drawn) and report 100 to 1000 nM

// repeat for CN1CCC[C@H]1COc1nc2c(F)c(-c3cc(O)cc4ccccc34)c(CCC#N)cc2c2c1c(C(=O)NCc1ccccc1)cn2C1C2CNC1C2 (stereo partly drawn) and report 100 to 1000 nM

// repeat for CN1CCC[C@H]1COc1nc2c(F)c(-c3cc(O)cc4ccccc34)c(CCC#N)cc2c2c1c(Cl)cn2C1C2CNC1C2 (stereo partly drawn) and report 100 to 1000 nM

// repeat for CN1CCC[C@H]1COc1nc2c(F)c(-c3cc(O)cc4ccccc34)c(CCC#N)cc2c2c1c(-c1cccnc1)cn2C1C2CNC1C2 (stereo partly drawn) and report 100 to 1000 nM

// repeat for `COC(=O)CCc1c(N2CC(N(C)C)C2)c2c(OC)nc3c(F)c(-c4cc(O)cc5ccccc45)c(CCC#N)cc3c2n1[C@H]1[C@H]2CN[C@@H]1C2` and report 100 to 1000 nM

// repeat for CN1CCC[C@H]1COc1nc2c(F)c(-c3cc(O)cc4ccccc34)c(CCC#N)cc2c2c1cc(-c1cnn(C)c1)n2C1C2CNC1C2 (stereo partly drawn) and report ≤ 100 nM
